Target: Neuropeptide Y receptor type 5 (Mus musculus, UniProt O70342)
Sequence (O70342 whole entry): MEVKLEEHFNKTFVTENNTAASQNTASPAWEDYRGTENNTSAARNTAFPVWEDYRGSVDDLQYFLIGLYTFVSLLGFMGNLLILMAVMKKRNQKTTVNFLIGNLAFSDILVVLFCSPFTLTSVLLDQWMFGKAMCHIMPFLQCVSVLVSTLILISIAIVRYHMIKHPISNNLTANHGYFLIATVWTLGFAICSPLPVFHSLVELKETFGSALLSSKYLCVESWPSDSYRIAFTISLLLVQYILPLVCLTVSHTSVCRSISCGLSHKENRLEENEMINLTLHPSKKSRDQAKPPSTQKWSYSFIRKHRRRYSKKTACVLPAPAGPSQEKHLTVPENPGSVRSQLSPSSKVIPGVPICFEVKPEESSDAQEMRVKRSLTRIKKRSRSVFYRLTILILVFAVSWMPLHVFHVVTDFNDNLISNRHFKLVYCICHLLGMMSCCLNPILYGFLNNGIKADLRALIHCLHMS
pIC50: −log10 of the molar value.
// compounds with pIC50 on Neuropeptide Y receptor type 5 (Mus musculus, UniProt O70342), multi-source literature
Decide by pIC50: equal to or exceeding 8 means Satisfied, less means Not satisfied.

Example entries and their recorded answers appear below.
>>> df
                                   compound       category
0  CCS(=O)(=O)c1ccc2[nH]c(Oc3ccc(OC(F)(F)F)cc3)nc2c1  Not satisfied
1  CCS(=O)(=O)c1ccc2[nH]c(C3(c4ccc(-c5ccccc5)cc4)CC3)nc2c1  Not satisfied
2  CCS(=O)(=O)c1ccc2[nH]c(Oc3ccc(-c4ccccn4)cc3)nc2c1      Satisfied
3  CCCS(=O)(=O)c1ccc2nc(N3CCOC(c4ccccc4)C3)[nH]c2c1 (stereo not drawn)      Satisfied
4  CCS(=O)(=O)c1ccc2[nH]c(N3CCOC(c4ccc(OC)cc4)C3)nc2c1 (stereo not drawn)      Satisfied

Request: Check this compound for pIC50 at or above 8: `Cc1ccccc1C(=O)c1cnc(NCCCNS(=O)(=O)c2cccc(F)c2)s1`
Response: Satisfied
